Molecular target: T1, BsoBI D246R (UniProt P70985 P70985:1-323, D246R)
T1 sequence: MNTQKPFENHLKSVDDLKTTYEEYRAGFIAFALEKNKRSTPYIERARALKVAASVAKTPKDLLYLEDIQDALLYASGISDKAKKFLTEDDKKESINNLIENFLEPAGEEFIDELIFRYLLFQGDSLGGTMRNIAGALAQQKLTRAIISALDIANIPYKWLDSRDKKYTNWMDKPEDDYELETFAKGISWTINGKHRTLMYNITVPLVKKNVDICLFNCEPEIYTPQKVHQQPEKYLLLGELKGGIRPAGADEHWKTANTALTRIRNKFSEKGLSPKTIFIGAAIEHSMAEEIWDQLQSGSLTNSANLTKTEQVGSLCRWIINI
Test: filter; 4 mM CaCl2; ±3.5
Settings: chain copies: 2 inferred; label: 33P 5' end
endpoint label: Kd (nM)
Provide the reading as a plain figure in nM.

So what does the record say about Kd for S2 (CCCGGG) (dsDNA) DNA 1: GAGTGTTATGGGTAGCCCGGGTGAAGTGGGAATATC DNA 2: GATATTCCCACTTCACCCGGGCTACCCATAACACTC ?
0.038
